- system: T1, mature human TGF-β2 (human, UniProt P61812 303-414)
- T1 sequence: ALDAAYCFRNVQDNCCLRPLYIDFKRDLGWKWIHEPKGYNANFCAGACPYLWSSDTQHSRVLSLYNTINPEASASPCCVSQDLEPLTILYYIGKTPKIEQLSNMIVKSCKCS
- measurement-protocol: cell-based or functional assay
assay-readout: HT-2 cell neutralization assay, IC50 (Mean ng/ml) (ng/mL)

INSERT INTO assay_data (binder, units_of_measure, observed_measurement) VALUES
  ('mAb 12.4 (antibody, human IgG4 S228P, kappa, V domains shown, Full-length monoclonal antibody, made by linking the Fab to an IgG4 Fc region) VH: QVQLVQSGAEVKKPGASVKVSCKASGYTFTSYWMNWVRQAPGQGLEWMGQIFPALGSTNYGEMFEGRVTMTTDTSTSTAYMELRSLRSDDTAVYYCARGIGNYALDAMDYWGQGTLVTVSS VL: DIQMTQSPSSLSASVGDRVTITCRASESVDWWGNSFMHWYQQKPGKAPKLLIYLASNLESGVPSRFSGSGSGTDFTLTISSLQPEDFATYYCQQNIEDPLTFGGGTKVEIKR', 'ng/mL', 6.14);
